Data credit: patent US20230233569A1

Measured IC50, listed per entry.
Target: KRAS G12D (Homo sapiens, UniProt P01116+P62937, G12D)
Sequence (P01116 1-169 isoform P01116-2 G12D limits assumed): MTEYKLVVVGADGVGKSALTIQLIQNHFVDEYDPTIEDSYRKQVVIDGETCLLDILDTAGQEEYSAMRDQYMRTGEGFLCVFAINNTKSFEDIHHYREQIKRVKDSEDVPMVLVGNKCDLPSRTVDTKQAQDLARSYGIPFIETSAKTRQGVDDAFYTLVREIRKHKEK
Sequence (P62937 whole entry): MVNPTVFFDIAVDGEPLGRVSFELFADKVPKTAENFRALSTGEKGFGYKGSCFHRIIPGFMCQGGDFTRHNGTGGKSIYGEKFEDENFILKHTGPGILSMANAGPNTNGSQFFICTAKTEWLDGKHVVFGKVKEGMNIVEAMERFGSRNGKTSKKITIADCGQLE
Assay: Disruption of BRAF RBD interaction with Ras (FRET / MOA assay, with Cyclophilin A)
Format: biochemical
Conditions: read-out: KRAS G12D FRET data, IC50
assay_readout: IC50

1. C=CC(=O)N1CC[C@H](C(=O)N(C)[C@H](C(=O)N[C@H]2Cc3cc(O)cc(c3)-c3ccc4c(c3)c(c(-c3ccc5c(c3)CN(C)C5)n4CC)CC(C)(C)COC(=O)[C@@H]3CCCN(N3)C2=O)C(C)C)C1    > 10000 nM
2. CCn1c(-c2cccnc2[C@H](C)OC)c2c3cc(ccc31)-c1cc(O)cc(c1)C[C@H](NC(=O)[C@H](C(C)C)N(C)C(=O)[C@H]1C[C@H](O)C1)C(=O)N1CCC[C@H](N1)C(=O)OCC(C)(C)C2    100 to 1000 nM
3. CCn1c(-c2cc(C3CCN(C)CC3)cnc2[C@H](C)OC)c2c3cc(ccc31)-c1cc(O)cc(c1)C[C@H](NC(=O)[C@H](C(C)C)N(C)C(=O)[C@@H]1OCC[C@@H]1c1ccccc1)C(=O)N1CCC[C@H](N1)C(=O)OCC(C)(C)C2 (atropisomer, axis not shown)    10 to 100 nM
4. C=CC(=O)N1CC[C@H](C(=O)N(C)[C@H](C(=O)N[C@H]2Cc3cc(O)cc(c3)-c3ccc4c(c3)c(c(-c3ccncc3COC)n4CC)CC(C)(C)COC(=O)[C@@H]3CCCN(N3)C2=O)C(C)C)C1    1000 to 10000 nM
5. C=CC(=O)N1CC[C@H](C(=O)N(C)[C@H](C(=O)N[C@H]2Cc3nc(cs3)-c3ccc4c(c3)c(c(-c3cccnc3[C@H](C)OC)n4CC)CC(C)(C)CN(C)C[C@@H]3CCCN(N3)C2=O)C(C)C)C1    > 10000 nM
6. CCn1c(-c2cccnc2[C@H](C)OC)c2c3cc(ccc31)-c1csc(n1)C[C@H](NC(=O)[C@H](C(C)C)N(C)C(=O)N1CCC[C@H]1CN(C)C)C(=O)N1CCC[C@H](N1)C(=O)OCC(C)(C)C2    1000 to 10000 nM
7. C=CC(=O)N(C)CC1CCN(C(=O)N(C)[C@H](C(=O)N[C@H]2Cc3nc(cs3)-c3ccc4c(c3)c(c(-c3cccnc3[C@H](C)OC)n4CC)CC(C)(C)COC(=O)C3CCCN(N3)C2=O)C(C)C)CC1 (some centres unmarked)    100 to 1000 nM
8. CCn1c(-c2cnccc2COC)c2c3cc(ccc31)-c1cc(O)cc(c1)C[C@H](NC(=O)[C@H](C(C)C)N(C)C(=O)[C@H]1CCN(C(=O)/C=C/CN(C)C)C1)C(=O)N1CCC[C@H](N1)C(=O)OCC(C)(C)C2    100 to 1000 nM
9. CCn1c(-c2cc(N3CCN(C)CC3)cnc2[C@H](C)OC)c2c3cc(ccc31)-c1csc(n1)C[C@H](NC(=O)[C@H](C(C)C)N(C)C(=O)[C@@H]1OCC[C@@H]1c1ccccc1)C(=O)N1CCC[C@H](N1)C(=O)OCC(C)(C)C2 (atropisomer, axis not shown)    100 to 1000 nM
10. CCn1c(-c2cccnc2[C@H](C)OC)c2c3cc(ccc31)-c1csc(n1)C[C@H](NC(=O)c1ccccn1)C(=O)N1CCC[C@H](N1)C(=O)OCC(C)(C)C2    1000 to 10000 nM
11. CCn1c(-c2cccnc2[C@H](C)OC)c2c3cc(ccc31)-c1cc(O)cc(c1)C[C@H](NS(=O)(=O)N1CCN(C)CC1)C(=O)N1CCC[C@H](N1)C(=O)OCC(C)(C)C2 (racemic)    > 10000 nM
12. CCn1c(-c2cccnc2[C@H](C)OC)c2c3cc(ccc31)-c1cc(sn1)C[C@H](NC(=O)[C@H](C(C)C)N(C)C(=O)[C@@H]1CCN(C(=O)C#CCN3CCOCC3)C1)C(=O)N1CCC[C@H](N1)C(=O)OCC(C)(C)C2    > 10000 nM
13. CCn1c(-c2cccnc2[C@H](C)OC)c2c3cc(ccc31)-c1cc(O)cc(c1)C[C@H](NC(=O)[C@H](C(C)C)N(C)C(=O)[C@H]1CCN(C(=O)[C@@]3(C)CCCN3)C1)C(=O)N1CCC[C@H](N1)C(=O)OCC(C)(C)C2    10 to 100 nM
14. CCn1c(-c2cccnc2[C@H](C)OC)c2c3cc(ccc31)-c1cc(O)cc(c1)C[C@H](NC(=O)[C@H](C(C)C)N(C)C(=O)[C@H]1CCN(C(=O)OC3COC3)C1)C(=O)N1CCC[C@H](N1)C(=O)OCC(C)(C)C2    100 to 1000 nM
15. C=CS(=O)(=O)N1CC[C@H](C(=O)N(C)[C@H](C(=O)N[C@H]2Cc3cc(O)cc(c3)-c3ccc4c(c3)c(c(-c3cccnc3COC)n4CC)CC(C)(C)COC(=O)[C@@H]3CCCN(N3)C2=O)C(C)C)C1    > 10000 nM
16. CCn1c(-c2cccnc2[C@H](C)OC)c2c3cc(ccc31)-c1csc(n1)C[C@H](NC(=O)[C@H](C(C)C)N(C)C(=O)N1CCC[C@@H](CN(C)C)C1)C(=O)N1CCC[C@H](N1)C(=O)OCC(C)(C)C2    100 to 1000 nM
17. CCn1c(-c2cccnc2[C@H](C)OC)c2c3cc(ccc31)-c1csc(n1)C[C@H](NC(=O)[C@H](C(C)C)N(C)C(=O)N1CC[C@H]3CN(C)C[C@H]31)C(=O)N1CCC[C@H](N1)C(=O)OCC(C)(C)C2 (atropisomer, axis not shown)    100 to 1000 nM
